Target: small-conductance Ca2+-activated K+ channels (SK channels, subtype 2) (Homo sapiens, UniProt Q9H2S1)
Construct: expressed in transfected cells; host or cells: HEK293
Experiment: whole-cell patch-clamp of ionic current through SK2 channels in HEK293 cells (SC100)
Type: cell-based
Conditions: whole-cell patch-clamp, HEK293 cells expressing SK2 channels; concentration that increases the basal current by 100%
READOUT NAME: SC100 (μM)

For orientation, consider the following solved cases.
Cc1cc(C)n(-c2nc(NC3CCC(F)(F)CC3)cc([S+](C)[O-])n2)n1 (stereo not drawn) [IN11067-062-P1]: + (+ means >1 uM)
COC(C)c1cc(-c2nc(C)cs2)nc(NC2CCC(F)(F)CC2)n1 (stereo not drawn): + (+ means >1 uM)
Cc1ccn(-c2cc(C(=O)O)nc(NC3CCC(F)(F)CC3)n2)n1: + (+ means >1 uM)
FC1(F)CCC(Nc2cc(N3CCOCC3)nc(-c3nccs3)n2)CC1: + (+ means >1 uM)
COCc1cc(-n2ccc(C(F)(F)F)n2)nc(NC2CCC(F)(F)CC2)n1: + (+ means >1 uM)
Cc1ccc(OCc2cc(NC3CCC(F)(F)CC3)nc(-n3ccc(C)n3)c2)nn1: +++ (+++ means <200 nM)

Let me know recorded SC100 (μM) for `CCOc1cc(-n2ccc(C)n2)nc(NC2CCC(F)(F)CC2)n1` , thanks. + (+ means >1 uM)

Consider the compound COC(C)c1cc(-n2ccc(C)n2)nc(NC2CCC(F)(F)CC2)n1 (stereo not drawn) . State its measured SC100 (μM). + (+ means >1 uM)

Hello, please tell me recorded SC100 (μM) for this one: Cc1cc(NC2CCC(F)(F)CC2)nc(Cn2nccc2C)n1 [IN11273-015-P2] + (+ means >1 uM)

Provide SC100 (μM) value for the following compound: `Cc1csc(-c2nc(NC3CCC(F)(F)CC3)cc(OC3CN(C(=O)C(C)C)C3)n2)n1` +++ (+++ means <200 nM)

Quote SC100 (μM) reported for COC(=O)NC(C)c1cc(NC2CCC(F)(F)CC2)nc(-n2ccc(C)n2)c1 (stereo not drawn) [IN11054-005-P1] please. + (+ means >1 uM)

Return value of SC100 (μM) for input `Cc1ccn(-c2nc(NC34CC5CC(CC(O)(C5)C3)C4)cc(N3CCOCC3)n2)n1` , no commentary. + (+ means >1 uM)

Give the measured SC100 (μM) for `Cc1ccn(-c2cc(N3CCC4(CCOCC4)C3)nc(NC3CCC(F)(F)CC3)n2)n1` + (+ means >1 uM)

---

Biological target: small-conductance Ca2+-activated K+ channels (SK channels, subtype 2) (Homo sapiens)
Construct: expressed in transfected cells; host or cells: HEK293
Assay: whole-cell patch-clamp of ionic current through SK2 channels in HEK293 cells (SC100)
Format: cell-based
Details: whole-cell patch-clamp, HEK293 cells expressing SK2 channels; concentration that increases the basal current by 100%
READOUT NAME: SC100 (μM)

Cc1ccn(-c2nc(NC3CCC(F)(F)CC3)cc(S(C)(=O)=O)n2)n1 [IN10973-041-P1]: + (+ means >1 uM)
CCN(CC)CC1CN(c2cc(NC3CCC(F)(F)CC3)nc(-c3nc(C)cs3)n2)CCO1 (centres unmarked) [IN10881-092-P1]: +++ (+++ means <200 nM)
Cc1cc(NC2CCC(F)(F)CC2)nc(-n2ccc(O)n2)n1: + (+ means >1 uM)
Cc1cc(C)n(-c2cc(N3CC4(COC4)C3)nc(NC3CCC(F)CC3)n2)n1 (centres unmarked): + (+ means >1 uM)
Cc1ccn(-c2cc(N(C)C)nc(NC3CCC(F)(F)CC3)n2)n1: + (+ means >1 uM)

Identify measured SC100 (μM) associated with Cc1ccc(-c2nc(NC3CCC(F)(F)CC3)cc(C(C)O)n2)o1 (centres unmarked) [IN10971-088-P1] + (+ means >1 uM)

---

Molecular target: small-conductance Ca2+-activated K+ channels (SK channels, subtype 2) (Homo sapiens)
Construct: expressed in transfected cells; host or cells: HEK293
Experiment: whole-cell patch-clamp of ionic current through SK2 channels in HEK293 cells (SC100)
Type: cell-based
Conditions: concentration that increases the basal current by 100%; HEK293 cells expressing SK2 channels
READOUT NAME: SC100

Cc1cc(C)n(-c2nc3c(c(NC4CCC(F)(F)CC4)n2)CCN(CC#N)C3)n1 [Compound 122]: + (+ means >1 uM)
Cc1cc(NC2CCC(F)(F)C2)nc(-n2nc(C)cc2C)n1 (centres unmarked) [Compound 172]: + (+ means >1 uM)
Cc1cc(C)n(-c2nc(NC3CCC(F)(F)C3)cc(C(F)(F)F)n2)n1 (centres unmarked) [Compound 167]: + (+ means >1 uM)

---

Target: small-conductance Ca2+-activated K+ channels (SK channels, subtype 2) (Homo sapiens, UniProt Q9H2S1)
Construct: expressed in transfected cells; host or cells: HEK293
Test: whole-cell patch-clamp of ionic current through SK2 channels in HEK293 cells (SC100)
Format: cell-based
Conditions: whole-cell patch-clamp, HEK293 cells expressing SK2 channels; concentration that increases the basal current by 100%
READOUT NAME: SC100 (μM)

CC(=O)N1CCN(c2cc(-n3ccc(O)n3)nc(NC3CCC(F)(F)CC3)n2)CC1: + (+ means >1 uM)
Cc1cc(NC2CCC(F)(F)CC2)nc(CC#N)n1 [IN11273-018-P1]: + (+ means >1 uM)

---

Target: small-conductance Ca2+-activated K+ channels (SK channels, subtype 2) (Homo sapiens, UniProt Q9H2S1)
Construct: expressed in transfected cells; host or cells: HEK293
Assay: whole-cell patch-clamp of ionic current through SK2 channels in HEK293 cells (SC100)
Type: cell-based
Conditions: whole-cell patch-clamp, HEK293 cells expressing SK2 channels; concentration that increases the basal current by 100%
READOUT NAME: SC100 (μM)

Cc1noc(-c2nc(NC3CCC(F)(F)CC3)cc(N3CCOCC3)n2)n1 [NSSy5835]: + (+ means >1 uM)
CCC(O)c1ccn(-c2nc(C)cc(NC3CCC(F)(F)CC3)n2)n1 (centres unmarked) [IN11251-011-P2]: + (+ means >1 uM)
COCC1COCCN1c1cc(NC2CCC(F)(F)CC2)nc(-c2nc(C)cs2)n1 (centres unmarked) [IN10881-099-P1]: + (+ means >1 uM)
COc1nn(-c2nc(NC3CCC(F)(F)CC3)cc(N3CCOCC3)n2)cc1F [IN11216-073-P1]: +++ (+++ means <200 nM)
COCC1CN(c2cc(NC3CCC(F)(F)CC3)nc(-c3nc(C)cs3)n2)CCO1 (centres unmarked) [NSSy5789]: +++ (+++ means <200 nM)

Here is another compound to look at.
Please list SC100 (μM) recorded for the compound CC(=O)c1cc(NC2CCC(F)(F)CC2)nc(-c2nc(C3CC3)cs2)n1 [IN11147-071-P1] + (+ means >1 uM)

---

Target: small-conductance Ca2+-activated K+ channels (SK channels, subtype 2) (Homo sapiens, UniProt Q9H2S1)
Construct: expressed in transfected cells; host or cells: HEK293
Assay: whole-cell patch-clamp of ionic current through SK2 channels in HEK293 cells (SC100)
Format: cell-based
Details: whole-cell patch-clamp, HEK293 cells expressing SK2 channels; concentration that increases the basal current by 100%
READOUT NAME: SC100 (μM)

Cc1ccn(-c2nc(NC3CC4CCC3O4)cc(N3CCOCC3)n2)n1 (stereo not drawn): + (+ means >1 uM)
OC(c1cc(NC2CCC(F)(F)CC2)nc(-n2ccc(C3CC3)n2)n1)C(F)(F)F (stereo not drawn) [IN11217-068-P1]: + (+ means >1 uM)
Cc1cc(C)n(-c2cc(NC3CCC(F)(F)CC3)cc(N3CCOCC3)n2)n1 [IN10991-065-P1]: + (+ means >1 uM)

---

Target: small-conductance Ca2+-activated K+ channels (SK channels, subtype 2) (Homo sapiens, UniProt Q9H2S1)
Construct: expressed in transfected cells; host or cells: HEK293
Assay: whole-cell patch-clamp of ionic current through SK2 channels in HEK293 cells (SC100)
Format: cell-based
Conditions: whole-cell patch-clamp, HEK293 cells expressing SK2 channels; concentration that increases the basal current by 100%
READOUT NAME: SC100 (μM)

Answered cases to consult:
COc1c(NC2CCC(F)(F)CC2)nc(-c2nc(C)cs2)nc1C(C)O (stereo not drawn) [IN11104-039-P1]: + (+ means >1 uM)
Cc1cc(NC2CCC(F)(F)CC2)nc(-n2ccc(=O)[nH]2)n1 [IN11079-067-P1]: + (+ means >1 uM)
Cc1cc(NC2CCC(F)(F)CC2)nc(-c2cccc(C)n2)c1 [IN11137-041-P1]: + (+ means >1 uM)
Cc1csc(-c2nc(NC3CCC(F)(F)CC3)cc(OCc3cnco3)n2)n1 [IN11059-047-P1]: +++ (+++ means <200 nM)
FC1(F)CCC(Nc2cc(N3CCOCC3)nc(-n3ccc(Br)n3)n2)CC1: +++ (+++ means <200 nM)
COC(=O)NC(C)(C)c1cc(NC2CCC(F)(F)CC2)nc(-n2ccc(C)n2)c1 [IN11063-030-P1]: + (+ means >1 uM)
Cc1cc(C)n(-c2cc(CO)cc(NC3CC(F)(F)C3)n2)n1 [IN11146-039-P1]: + (+ means >1 uM)
Cc1nc(-c2nc(NC3CCCCC3)cc(N3CCS(=O)(=O)CC3)n2)cs1: + (+ means >1 uM)
Cc1ccn(-c2nc(N[C@H]3C[C@@H]4CC[C@H]3O4)cc(N3CCOCC3)n2)n1: + (+ means >1 uM)
COc1c(NC2CCC(F)(F)CC2)nc(-c2nc(C)cs2)nc1OCCO [IN11111-023-P1]: + (+ means >1 uM)

Tell us which SC100 (μM) value is on record for CC(=O)c1cc(N2CCOCC2)cc(NC2CCC(F)(F)CC2)n1 [IN11104-090-P1] + (+ means >1 uM)

Answer with reported SC100 (μM) of COc1cnc(-c2nc(C3CC3)cs2)nc1NC1CCC(F)(F)CC1 [IN11147-096-P1] +++ (+++ means <200 nM)

Hello, please tell me recorded SC100 (μM) for this one: COCc1cc(NC2CCC(F)(F)CC2)nc(-n2ccc(C)n2)n1 [IN11053-007-P1] + (+ means >1 uM)

Write down SC100 (μM) measured for item COCC1CN(c2cc(NC3CCC(F)(F)CC3)nc(-c3nc(C)cs3)c2)CCO1 (stereo not drawn) +++ (+++ means <200 nM)

Item `Cc1nsc(-c2nc(NC3CCC(F)(F)CC3)cc(N3CCN(C4COC4)CC3)n2)n1` : provide SC100 (μM) + (+ means >1 uM)

The reported numbers originate from patent US10774064B2.
